Task for the reader: assign each of the following binders its reported fold difference in affinity vs original.
- subjectOfTest: T1, IL-1β (UniProt P01584 117-269)
- T1 construct: Antigen immobilised on the Biacore chip
- protocolDetails: Biacore, periplasmic extract
Remember to put the unit after the number in your answer.

{"binder": "XPA23 light chain D28K (Fab, V domains shown) VH: EVQLLESGGGLVQPGGSLRLSCAASGFTFSKYFMFWVRQAPGKGLEWVSVISPSGGMTRYADSVKGRFTISRDNSKNTLYLQMNSLRAEDTAVYYCARVGYGGNSDYWGQGTLVTVSS VL: DIQMTQSPSSVSASVGDRLTIICRASQKINRWLAWYQQTPGNAPKLLIHSATSLQSGVPSRFSGSGSGTDFTLTINSLQPEDFATYYCQQADSFPLTFGGGTKVEIK", "testValue": "0.82 fold"}

// switching to the query binder
(Q) Provide measured fold difference in affinity vs original value, entry: XPA23 light chain P95S (Fab, V domains shown) VH: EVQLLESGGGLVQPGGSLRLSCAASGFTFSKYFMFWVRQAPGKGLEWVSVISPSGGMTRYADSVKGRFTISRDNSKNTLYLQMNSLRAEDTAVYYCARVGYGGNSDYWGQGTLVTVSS VL: DIQMTQSPSSVSASVGDRLTIICRASQDINRWLAWYQQTPGNAPKLLIHSATSLQSGVPSRFSGSGSGTDFTLTINSLQPEDFATYYCQQADSFSLTFGGGTKVEIK
(A) 4.05 fold
